Tested on: SW-620 colon
experiment description: NCI tumour cell line growth inhibition, 48 h
quantity: TGI

# count of solved cases: 3
{"compound": "CC(=O)OC12COC1CC(O)C1(C)C(=O)C(O)C3=C(C)C(O)CC(O)(C(OC(=O)c4ccccc4)C21)C3(C)C (centres undefined)", "TGI": "> 100 µM"}
{"compound": "CC1C(OC2O[C@@H]3O[C@@]4(C)CC[C@H]5[C@H](C)CC[C@@H](C2C)[C@@]35O4)O[C@@H]2O[C@@]3(C)CC[C@H]4[C@H](C)CC[C@@H]1[C@@]24O3 (some centres undefined)", "TGI": "> 50 µM"}
{"compound": "CCCCCCCCC(=O)OCC(CS[As](C)C)OC(=O)CCCCCCCC (centres undefined)", "TGI": "14.9 µM"}

Attention now turns to another entry.
Fill in the blank: the reported TGI of CC(=O)OC12c3ccccc3-c3ccccc3C1C1C(=O)OC(=O)C12 (centres undefined) is ____.
> 10 µM
